- System: HCV genotype 3a (S52) chimeric HCVcc
- protocol.notes: Pan-genotypic activity test using chimeric HCVcc, genotype 3a
- Format: cell-based
- run.parameters: Hepatitis C virus, read-out: EC50 gt3a
pEC50: −log10 of the molar value.
property: pEC50

>  <given.smiles>
CCOC(=O)c1c(NC(=O)NCc2c(C(F)(F)F)sc3c2CCN(CCN(C)C)C3)sc2c1CCCC2

>  <measured.result>
> 7.00

$$$$
>  <given.smiles>
CCOC(=O)c1c(NC(=O)NCc2c(-n3cccc3)sc3c2CCN(CC(C)C)C3)sc2c1CCCC2

>  <measured.result>
6.00 to 7.00

$$$$
>  <given.smiles>
O=C(NCCCN1CCC(N2CCCCC2)CC1)c1ccc(Oc2ccccc2)cc1

>  <measured.result>
< 5.00

$$$$
>  <given.smiles>
O=C(NCCCN1CCC(N2CCCCC2)CC1)c1ccc(-c2ccc(C(F)(F)F)cc2)cc1

>  <measured.result>
< 5.00

$$$$
>  <given.smiles>
CCOC(=O)c1c(NC(=O)NCc2c(-n3cccc3)sc3c2CCN(S(C)(=O)=O)C3)sc2c1CCCC2

>  <measured.result>
> 7.00

$$$$
>  <given.smiles>
CC(C)(C)OC(=O)c1c(NC(=O)NCc2c(C(F)(F)F)sc3c2CCNC3)sc2c1CCCC2

>  <measured.result>
> 7.00

$$$$
>  <given.smiles>
CC(C)OC(=O)c1c(NC(=O)NCc2c(C(F)(F)F)sc3c2CCNC3)sc2c1CCCC2

>  <measured.result>
> 7.00

$$$$
>  <given.smiles>
CCN1CCc2c(sc(-n3cccc3)c2CNC(=O)Nc2sc3c(c2C(=O)OC(C)(C)C)CCCC3)C1

>  <measured.result>
6.00 to 7.00

$$$$
>  <given.smiles>
CCOC(=O)c1c(NC(=O)NCc2c(-n3cccc3)sc3c2CCNC3)sc2c1CCCC2

>  <measured.result>
6.00 to 7.00

$$$$
